period change by entry:
experiment: compounds altering circadian rhythm period length – cell-based, LOPAC library, luminescence reporter (AID 2774); conditions: circadian reporter cells, at 7 µM, actives lie on both sides;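 note: values are relative to mean of DMSO wells on each plate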
Activity calls are given as the source filed them. The rule behind the calls is not given here.
readout name: period change

> print(dat)
                                    molecule   readout.name       endpoint.value
 1  CCCC(=O)NCCc1c2n(c3ccc(OC)cc13)CCCc1ccccc1-2  period change    0.06 h (inactive)
 2  N#CC(Cc1ccc(O)c(O)c1)C(=O)N1CCc2ccccc21 (configuration not stated)  period change   0.025 h (inactive)
 3  N=c1ccn2c(n1)OC1[C@@H](O)[C@@H](CO)O[C@H]12 (some centres not stated)  period change  -0.115 h (inactive)
 4                    S=C(Nc1ccccc1)Nc1nccs1  period change    0.02 h (inactive)
 5               NCCNS(=O)(=O)c1cccc2cnccc12  period change    0.39 h (inactive)
 6                                Oc1ccccc1O  period change  -0.735 h (inactive)
 7                      COc1cc(CC(=O)O)ccc1O  period change    0.03 h (inactive)
 8  NC1CCN(O)C1=O (configuration not stated)  period change    0.11 h (inactive)
 9  CCCn1c(=O)c2[nH]c(-c3ccc(S(=O)(=O)O)cc3)nc2n(CCC)c1=O  period change  -0.005 h (inactive)
10  C=CCN1CCc2c(cc(O)c(O)c2Br)[C@@H](c2ccccc2)C1  period change   0.175 h (inactive)
11     Cn1c(=O)c2[nH]c(-c3ccccc3)nc2n(C)c1=O  period change    0.09 h (inactive)
12          O=C(Cc1ccc(Cl)c(Cl)c1)OCCN1CCCC1  period change  -0.095 h (inactive)
13  O=C(O)CCC(=O)N1CCCC1C(=O)O (configuration not stated)  period change  -0.225 h (inactive)
14  NC(=S)NCCCC(N)C(=O)O (configuration not stated)  period change   -0.05 h (inactive)
15  CCCOC(=O)c1c(-c2ccccc2)nc(CC)c(C(=O)SCC)c1CCC  period change   -0.02 h (inactive)
16  CNc1ncnc2c1ncn2[C@H]1C[C@H](OP(=O)(O)O)[C@@H](COP(=O)(O)O)O1  period change   -0.03 h (inactive)
17  CCCCCC(O)c1cccc(OCc2ccc3ccccc3n2)c1 (configuration not stated)  period change   0.015 h (inactive)

---

test: CRL1545 cell growth, single agent and combined, cisplatin and BGB IC20 combos (AID 1671464); details: CRL1545 osteosarcoma cells, at 0.5 µM;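 note: cells exposed to compound for 96 hours before readout; 0% = vehicle DMSO and 100% = high DMSO killing control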
Activity calls are given as the source filed them. Rule as the data show it: active = inhibition above about 80%; inactive = the rest.
Labels: true = active, false = inactive

> print(dat)
                                   compound  class.assignment
1      O=C1N=c2ccccc2=C1c1c(O)[nH]c2ccccc12             false
2  O=c1[nH]cnc2c1ncn2C1CCC(CO)O1 (stereo not given)             false
3  N#Cc1ccc(OC2CCC(NC(=O)CCSc3nc4ccccc4c(=O)[nH]3)CC2)cc1 (stereo not given)             false
4            O=C(CCCCCCC(=O)Nc1ccc(I)cc1)NO             false
5  COc1cccc2c1C(=O)c1c(O)c3c(c(O)c1C2=O)CC(O)(C(C)=O)CC3OC1CC(N)C(O)C(C)O1 (stereo not given)              true

---

assay: viability loss with induced miR-34 in A549 – imaging, A549 dox-inducible miR-34, nuclei and caspase counts, primary screen (AID 1347080); conditions: A549 miR-34 inducible, Hoechst nuclei count, 48 h; measured here: total cells with miR-34 induction; stronger effect = lower value
Define the label as Satisfied when cell count is strictly less than 6000 and as Not satisfied in all remaining cases.

> print(dat)
                                   compound  class.assignment
1  CN1CCN(Cc2cccc3cccnc23)CC1CCO (centres undefined)     Not satisfied
2  COC(=O)c1ccc(=O)c2nc3/c(=C/O)c(O)cc(=O)c3[nH]c12         Satisfied
3  CC1C(NC(=O)C(=NOC(C)(C)C(=O)O)c2csc(N)n2)C(=O)N1S(=O)(=O)O (centres undefined)     Not satisfied
4  Cc1nn(C)cc1-c1ccnc(NC2CCOC(C)(C)C2)n1 (centres undefined)     Not satisfied
5  Cc1cc2c(C(=O)NCC(C)c3ccccc3)c(O)c(O)cc2c(O)c1-c1c(C)cc2c(C(=O)NCC(C)c3ccccc3)c(O)c(O)cc2c1O (centres undefined)         Satisfied
6  Cn1cc(C(F)(F)F)nc1-c1ccc(OCC(O)CNCCOc2ccc(O)c(C(N)=O)c2)cc1 (centres undefined)     Not satisfied
7                 CN(C)C(=O)/N=N/C(=O)N(C)C     Not satisfied
8  CCN(CC)CCN(Cc1ccc(-c2ccc(C(F)(F)F)cc2)cc1)C(=O)Cn1c(SCc2ccc(F)cc2)nc(=O)c2c1CCC2         Satisfied

---

Each entry below carries its reported z-score.
assay: MELAS cybrid and Rieske KO viability enhancers – cell-based, MELAS cybrids, Rieske KO mouse fibroblasts, CellTiter-Glo, primary screen (AID 1508586); settings: MELAS cybrid survival, low glucose, CellTiter-Glo 48 h; stronger effect = higher value;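 note: z relative to plate mean and SD of compound and empty wells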
readout name: z-score

> print(dat)
                                    molecule  endpoint.value
 1  O=C(Nc1n[nH]c(Cc2ccccc2)n1)N1CCN(c2ncncn2)CC1           0.379
 2  CC(=O)NC1C(N=C(N)N)C=C(C(=O)O)O[C@H]1C(O)C(O)CO (some centres not stated)          -0.333
 3      Cc1cc2nc3[nH]c(=O)[nH]c(=O)c3nc2cc1C            1.63
 4  CC(C)CCN1C(=O)N(C(C)C)C(=O)C12CCN(Cc1ccc(CN3CCCCC3)s1)CC2         -0.0425
 5  CCOc1cc2ncc(C#N)c(Nc3ccc(F)c(Cl)c3)c2cc1NC(=O)C=CCN(C)C            1.18
 6     COc1cccc(Cc2noc(-c3nccc4ccccc34)n2)c1           0.324
 7  NCCCC[C@@H]1NC(=O)[C@@H]2C[C@H](NCc3nc(-c4ccccc4)cs3)CN2C1=O         -0.0314
 8  OCC1OC(OCCc2ccc(O)cc2)C(O)C(O)C1O (configuration not stated)           -0.35
 9             Cc1nonc1CN(C)c1ncnc2nc[nH]c12          -0.379
10  CN1CCCN(C(=O)c2cccc(-c3ccc(C=C4C(=O)Nc5ccc(Cl)cc54)o3)c2)CC1            0.13
11  Fc1ccc(C(c2ccc(F)cc2)N2CCN(CC=Cc3ccccc3)CC2)cc1          -0.335
12  CCn1nc(C(=O)N2CCCC2)c2c1CCC(N1CCN(c3ccccc3OC)CC1)C2 (configuration not stated)          -0.423
13  Cc1cc(Nc2nc(NC(C)c3ccc(F)cc3)c(C#N)cc2F)n[nH]1 (configuration not stated)            2.18
14          COc1ccc(C(=O)/C(Br)=C\C(=O)O)cc1          -0.188
15  CNCc1ccc(C)c(NC(=O)c2ccc(Nc3nc(-c4ccccc4)c4ccccc4n3)cc2)c1          -0.615
16                       O=c1ccc2ccccc2[nH]1            1.28
17  COc1ccc(CN2CCN(c3nccc(-c4cn(C)nc4C)n3)CC2=O)cc1            4.51
18     Cc1nc(NC(=O)NCc2cccc(C(F)(F)F)c2)nn1C          0.0413
19  Cc1ncc(CNc2cc(C(=O)Nc3cccc(N(C)C)c3)cc(S(=O)(=O)N3CCCC3)c2)[nH]1          -0.563
20  CC1(C)S[C@@H]2[C@H](NC(=O)[C@H](NC(=O)N3CCNC3=O)c3ccccc3)C(=O)N2[C@H]1C(=O)O           0.409
21  Cc1ccc(Cl)cc1N(CC(=O)Nc1c(F)cccc1F)S(C)(=O)=O          -0.403
22  Cc1nn(C)cc1-c1ccnc(NCC(C)Oc2cccnc2)n1 (configuration not stated)          -0.961

---

test: growth inhibition, single agent and combos, cell-based, chromothripsis tumors, cisplatin or BGB combos (AID 1671450); conditions: HDN33 neuroblastoma cells, at 0.5 µM, stronger effect = higher value;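 note: cells exposed to compound for four days; 0% = vehicle DMSO and 100% = cell killing by high DMSO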
Calls of active or inactive are those of the source. No stated cut-off is given here; in the data, active means inhibition above about 80%; inactive means the rest. Non-standard residues stand in square brackets, D forms with d. Residues, ends and D or L forms follow the SMILES beside them. Dolaproine = CO[C@@H]([C@@H]1CCCN1)[C@@H](C)C(=O)O; Dil = CC[C@H](C)[C@H](NC)[C@@H](CC(=O)O)OC; NMeV = CN[C@H](C(=O)O)C(C)C
readout name: inhibition

molecule	readout name	endpoint value
O=C(CCCCCCC(=O)Nc1ccc(I)cc1)NO	inhibition	2.25% (inactive)
C#CCC(CCCCCC)C(=O)O (centres undefined)	inhibition	8.32% (inactive)
CC[C@H](C)[C@@H]([C@@H](CC(=O)N1CCC[C@H]1[C@H](OC)[C@@H](C)C(=O)N[C@@H](Cc1ccccc1)C(=O)O)OC)N(C)C(=O)[C@@H](NC(=O)[C@@H](NC)C(C)C)C(C)C (H-[NMeV]V[Dil][Dolaproine]F-OH)	inhibition	71.4% (inactive)
CCC(C)C(=O)OC1CC(C)C=C2C=CC(C)C(CCC3CC(O)CC(=O)O3)C21 (centres undefined)	inhibition	21.8% (inactive)
O=c1cc(-c2ccc(O)cc2)[nH]c(=S)[nH]1	inhibition	-17.1% (inactive)
CO[C@H]1/C=C/O[C@@]2(C)Oc3c(C)c(O)c4c(O)c(c5c(c4c3C2=O)=NC2(CCN(CC(C)C)CC2)N=5)NC(=O)/C(C)=C\C=C\[C@H](C)[C@H](O)[C@@H](C)[C@@H](O)[C@@H](C)[C@H](OC(C)=O)[C@@H]1C	inhibition	1.4% (inactive)
Cn1cc(-c2cnn3c(N)c(Br)c([C@H]4CCCNC4)nc23)cn1	inhibition	22.3% (inactive)
Cn1cnc2[nH]c(=O)[nH]c(=O)c21	inhibition	-29.3% (inactive)
NC(=O)c1cccc2cn(-c3ccc(C4CCCNC4)cc3)nc12 (centres undefined)	inhibition	-12.8% (inactive)

Data origin: PubChem BioAssay
